System: P-388 (murine leukemia)
Experiment Description: Growth inhibition of tumor cell line P-388 (Table 1)
Format: cell-based
Measurement Context: Mus musculus, P388, 72 h; 3 day drug exposure; columns A/B = scaffold type; read-out: IC50, concentration inhibiting 50% of the growth of P-388
Quantity Measured: IC50

• COc1cc(OC)cc(C2NCCc3c2[nH]c2ccccc32)c1 (stereo not shown) = 0.2 µg/mL
• COc1cc(C2NCCc3c2[nH]c2ccccc32)cc(OC)c1OC (stereo not shown) = 1.2 µg/mL
• CN(C)c1ccc(C2=NCCc3c2[nH]c2ccccc32)cc1 = 2.9 µg/mL
• COc1ccc(C2NCCc3c2[nH]c2ccccc32)cc1OC (stereo not shown) = 2.8 µg/mL
• COc1ccc(C2NCCc3c2[nH]c2ccccc32)c(OC)c1 (stereo not shown) = 0.6 µg/mL
• Brc1ccc(C2NCCc3c2[nH]c2ccccc32)cc1 (stereo not shown) = 1 µg/mL
• CCN(CC)c1ccc(C2=NCCc3c2[nH]c2ccccc32)cc1 = 0.7 µg/mL
• COc1ccc(OC)c(C2=NCCc3c2[nH]c2ccccc32)c1 = 1.1 µg/mL
• CC(=O)O[C@H]1C(=O)[C@@]2(C)[C@H]([C@H](OC(=O)c3ccccc3)[C@]3(O)C[C@H](OC(=O)[C@H](O)[C@@H](NC(=O)c4ccccc4)c4ccccc4)C(C)=C1C3(C)C)[C@]1(OC(C)=O)CO[C@@H]1C[C@@H]2O [Compound 30, paclitaxel, reference compound] = < 0.001 µg/mL
• CN(C)c1ccc(C2NCCc3c2[nH]c2ccccc32)cc1 (stereo not shown) = 2.2 µg/mL

Sourced from patent US6720331B2
